- Test system: SK-MEL-5 melanoma
- measurement_protocol: NCI tumour cell line growth inhibition, 48 h
experimental_readout: GI50

Reference set, count: 3
compound	result
CN(C)CCCNc1nccc(-c2c(-c3ccc(F)cc3)nn3cc(C(F)(F)F)ccc23)n1	3480 nM
CC1=C([Se]CC(OC(=O)[C@@H](CO)NC(=O)OC(C)(C)C)C(=O)NC(C)(C)C)C(=O)c2ccccc2C1=O (stereo partly specified)	1590 nM
N#Cc1c(-c2ccccc2)cc(-c2ccccc2)n(CCCCC(=O)NO)c1=O	1840 nM

Problem: Observed GI50 on SK-MEL-5 melanoma for C#COc1cccc(Nc2ncnc3ncc(NC(=O)CCl)cc23)c1 , please.
Result: > 51200 nM

Problem: Observed GI50 on SK-MEL-5 melanoma for COc1cc2c3c(n(C)c(=O)c2cc1OC)-c1cc2c(cc1/C3=C\CCCBr)OCO2 , please.
Result: > 69500 nM

Problem: Observed GI50 on SK-MEL-5 melanoma for CC1=C(/C=C/C(C)=C/C=C/C(C)=C/C(=O)Nc2ccc(O)cc2)C(C)(C)CCC1 , please.
Result: 2100 nM

====

- System: NCI-H522 lung
- measurement_protocol: NCI tumour cell line growth inhibition, 48 h
experimental_readout: TGI

Reference set, count: 5
compound	tested_target	result
CC12CC[C@H](O)C(C)(C)[C@H]1CC[C@](C)(O)C2COc1ccc2ccc(=O)oc2c1 (some centres not stated)	NCI-H522 lung	> 100 µM
CN1CCN(Cc2ccc(NC(=O)c3ccc(C#N)c(C#Cc4cnc(N)c5ncccc45)c3)cc2C(F)(F)F)CC1	NCI-H522 lung	28.6 µM
CC(=O)NCCc1c[nH]c2ccc(Cl)cc12	NCI-H522 lung	> 100 µM
O=C1C(Cl)=C(Nc2cccc(O)c2)C(=O)N1c1ccc(Cl)c(Cl)c1	NCI-H522 lung	> 100 µM
COC(=O)c1ccc([N+](=O)[O-])c(O)c1	NCI-H522 lung	> 100 µM

Problem: Find the recorded TGI belonging to O=c1c2ccccc2nc(-c2ccccc2)n1NC(=S)Nc1ccc(Cl)cc1[N+](=O)[O-] and report it.
Result: > 100 µM

Problem: Find the recorded TGI belonging to [N-]=[N+]=Nc1c([N+](=O)[O-])c(Cl)nc2ccccc12 and report it.
Result: 0.866 µM

Problem: Find the recorded TGI belonging to c1ccc2sc(C3(N4CCCCC4)CCCCCC3)cc2c1 and report it.
Result: 32.8 µM

Problem: Find the recorded TGI belonging to Cc1nc2ccccc2c(=O)n1NC(=O)c1ccccc1O and report it.
Result: > 100 µM

Problem: Find the recorded TGI belonging to COc1ccc(C2ON(c3ccccn3)CC=C2C)cc1 (configuration not stated) and report it.
Result: > 100 µM

Problem: Find the recorded TGI belonging to CC(=O)Nc1cc2c(cc1O)CC[C@@H]1[C@@H]2CC[C@]2(C)[C@@H](O)CC[C@@H]12 and report it.
Result: 81.5 µM

Problem: Find the recorded TGI belonging to CC1(C)CCc2cc3c(-c4ccccc4)cc(=O)oc3cc2O1 and report it.
Result: > 100 µM

====

- Test system: RPMI-8226 leukemia
- measurement_protocol: NCI tumour cell line growth inhibition, 48 h
// values below are reported TGI

molecule	TGI
COc1ccc(C2=NN(c3ccccc3)C(c3cc4cc(Br)ccc4nc3Cl)C2)cc1 (centres undefined)	> 25 µM

Problem: Find the recorded TGI belonging to O=C(Nc1ccccc1C(=O)O)/C(=C/c1ccccc1)NC(=O)c1ccccc1 and report it.
Result: > 100 µM

Problem: Find the recorded TGI belonging to CC(=O)NCCc1c[nH]c2ccc(Cl)cc12 and report it.
Result: > 100 µM

Problem: Find the recorded TGI belonging to O=P1(Oc2ccc(Cl)cc2)OCCS1 (centres undefined) and report it.
Result: > 100 µM

Problem: Find the recorded TGI belonging to O=C1c2nn(-c3ccccc3)nc2C(c2ccccc2)N1c1ccccc1 (centres undefined) and report it.
Result: > 100 µM

Problem: Find the recorded TGI belonging to CN(C)CCN=Cc1c2ccccc2c(=O)n2c1oc1ccccc12 and report it.
Result: > 100 µM
